# Tested on: HOP-62 NSCLC
# testDetails: NCI tumour cell line growth inhibition, 48 h
Exercise: for every item that follows, state its recorded GI50.

{"smilesRepresentation": "NC(=O)c1cc(I)ccc1NC(=O)COc1ccccc1", "GI50": "598 nM"}
{"smilesRepresentation": "CC(C)(CO)N=Cc1ccccc1[O-].CC(C)(CO)N=Cc1ccccc1[O-].[Co+2]", "GI50": "> 100000 nM"}
{"smilesRepresentation": "NC(N)=N/N=C/c1c(-c2ccc(Cl)c([N+](=O)[O-])c2)nc2n1CCS2", "GI50": "2830 nM"}

## Input // fetch HOP-62 NSCLC GI50 for COc1cc2nnn3c4ncccc4c(N=O)c3c2cc1OC
## Output 6710 nM

* * *

# Test system: IGROV1 ovarian
# testDetails: NCI tumour cell line growth inhibition, 48 h
outcomeMeasure: TGI

Dear reader, for each entry below, please note its TGI.
1. Cc1cn([C@H]2[C@@H](CO)C[C@H]2O)c(=O)[nH]c1=O
2. COc1ccc(C(=O)C[C@]2(O)C(=O)Nc3c(Cl)ccc(Cl)c32)cc1
3. Cc1ccc(/C=C2\CN(C)CC3C2=NC(=S)NC3c2ccc(C)cc2)cc1 (configuration not stated)
4. COc1ccc2[nH]c3c(=O)[nH]ncc3c2c1

## Output
1: > 100 µM; 2: > 100 µM; 3: > 80.1 µM; 4: > 100 µM

Dear reader, for each entry below, please note its TGI.
1. Cc1ccc(S(=O)(=O)N/N=C2\C3CC4CC(C3)C2C4)cc1 (configuration not stated)
2. Nc1c(N=Nc2ccc(-c3ccc(N=Nc4c(O)ccc5cc(S(=O)(=O)O)cc(S(=O)(=O)O)c45)cc3)cc2)c(S(=O)(=O)O)cc2cc(S(=O)(=O)O)c(N=Nc3ccccc3)c(O)c12
3. NS(=O)(=O)c1ccc(NC(=O)c2cccn3c(=O)c4ccccc4nc23)cc1
4. CC1(C)CC(=O)c2c(oc3cc(O)c(O)cc23)C1
5. Cc1ccc(-n2c3c(c4c(CN5CCOCC5)c(O)ccc42)CCc2ccccc2C3=O)cc1
6. CCOC(=O)CCCn1cc(C(=O)OC)nn1

## Output
1. > 100 µM
2. > 100 µM
3. > 100 µM
4. > 100 µM
5. > 100 µM
6. > 100 µM

Dear reader, for each entry below, please note its TGI.
1. Cc1cc(S(=O)(=O)O)c(NC(=O)c2oc3cc(O)ccc3c(=O)c2C)cc1Cl
2. CC1=C2NCN(C)N=C2C(C#N)(C#N)C1(C#N)C#N

## Output
> 100 µM
> 63 µM

* * *

# Tested on: IGROV1 ovarian
# testDetails: NCI tumour cell line growth inhibition, 48 h
outcomeMeasure: TGI

Worked cases, answers included:
{"compound": "O=P(O)(O)CN1CCNCCN(CP(=O)(O)O)CCNCC1", "targetEntity": "IGROV1 ovarian", "TGI": "> 51.2 µM"}
{"compound": "c1ccc(CC(NCCNC(Cc2ccccc2)c2ccccc2)c2ccccc2)cc1 (stereo unspecified)", "targetEntity": "IGROV1 ovarian", "TGI": "2.84 µM"}
{"compound": "CNc1ccc(Cl)cc1S(=O)(=O)c1ccccc1[N+](=O)[O-]", "targetEntity": "IGROV1 ovarian", "TGI": "> 100 µM"}
{"compound": "Fc1cc(-c2nnc3n2N=C(c2ccc(Cl)cc2Cl)CS3)c(Cl)cc1Cl", "targetEntity": "IGROV1 ovarian", "TGI": "> 100 µM"}
{"compound": "C[C@@H]1C/C=C\\C(=O)O[C@H](/C=C/C#C/C=C/C(C)(C)[C@@H](O)c2cccc(O)c2Br)[C@@H](C)/C=C/[C@H](C)C[C@H](OC(N)=O)C1", "targetEntity": "IGROV1 ovarian", "TGI": "18.5 µM"}

Dear reader, for each entry below, please note its TGI.
1. COc1cccc(CN(C(=O)/C=C\Sc2ccccc2)C(C)(C)C)c1
2. C/C(=N/O)c1ccc2c(c1)C(=NO)c1cc(/C(C)=N/O)ccc1-2
3. CC1=C(C(=O)CC(=O)C(=O)NC2C3CC4CC(C3)CC2C4)Sc2ccccc2N1 (stereo unspecified)
4. N#CCCC1(CCC#N)CCCCCCC(CCC#N)(CCC#N)C(O)C1O (stereo unspecified)
5. COC1=CC(=O)C2=C(C1=O)[C@H]1CC[C@]3(C)[C@@H](OC(C)=O)CC[C@H]3[C@@H]1CC2
6. CN(C)C/C=C/C(=O)Nc1ccc(C(=O)N2CCC[C@@H](Nc3ncc(Cl)c(-c4c[nH]c5ccccc45)n3)C2)cc1

## Output
> 100 µM
49.2 µM
> 100 µM
> 100 µM
> 100 µM
11.3 µM
